# Tested on: Purkinje fiber
# run-description: Effect on APD (APD75, field-stimulated right ventricular free wall)
# Type: cell-based, adult mongrel dog
# measurement-conditions: Canis lupus familiaris, purkinje, 20 min, dose 1 μg/ml, 20 minutes incubation, 37° C., 1 Hz; control before drug = 100%; read-out: APD75 % (percent change in APD75)
property-label: activation at 1 µg/mL (%)

1) CCC1CCN(CCCOc2ccc3c(c2)OCC3=O)CC1	6
2) CCCC1CCCCN1CCCOc1ccc2c(c1)OCC2=O (centres unmarked)	7
3) CC(C)CN(CCCOc1ccc2c(c1)OCC2=O)CC(C)C	7
4) CC1CCCN(CCCOc2ccc3c(c2)OCC3=O)C1 (centres unmarked)	10
5) CCN(CCCOc1ccc2c(c1)OCC2=O)C12CC3CC(CC(C3)C1)C2	0
6) CCCCCN(CC)CCCCOc1ccc2c(c1)OCC2=O	0
7) CCCCCCC[N+](CC)(CC)CCCOc1ccccc1C=CC(C)=O	0
8) CC[N+]1(CCCOc2ccc3c(c2)OCC3=O)CC(C)OC(C)C1 (centres unmarked)	0
9) CCCCCCC[N+](CC)(CC)CC(O)COc1ccc2c(c1)OCC2=O (centres unmarked)	15
10) CCCCCCC[N+](CC)(CC)CCCOc1ccc2c(c1)OCC2=O.[Br-]	17
11) O=C1COc2cc(OCCCN3CCCCC3)ccc21	0
